// provenance: patent US10034886B2

Please respond with reported pEC50 for every item in the list.
- target_system: GLP-1R (Homo sapiens, UniProt P43220)
- Construct: host or cells: GLP-1R CRE-bla CHO-K1 cells
- Sequence (P43220 24-463): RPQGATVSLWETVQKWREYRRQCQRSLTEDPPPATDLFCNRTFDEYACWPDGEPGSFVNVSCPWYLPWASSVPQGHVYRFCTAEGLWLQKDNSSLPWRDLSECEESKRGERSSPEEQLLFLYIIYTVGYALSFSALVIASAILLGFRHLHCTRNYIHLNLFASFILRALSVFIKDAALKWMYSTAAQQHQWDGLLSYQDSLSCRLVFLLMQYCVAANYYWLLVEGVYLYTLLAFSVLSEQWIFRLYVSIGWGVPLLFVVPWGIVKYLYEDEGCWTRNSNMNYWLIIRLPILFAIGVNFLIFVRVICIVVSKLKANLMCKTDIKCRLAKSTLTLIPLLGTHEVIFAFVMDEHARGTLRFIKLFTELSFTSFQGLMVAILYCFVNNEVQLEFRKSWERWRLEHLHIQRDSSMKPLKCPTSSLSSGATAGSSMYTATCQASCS
- Sequence (P01275 100-127 partner limits assumed): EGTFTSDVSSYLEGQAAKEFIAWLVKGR
- test_summary: EC20 GLP-1(9-36) PAM cAMP assay: dose response of compound in the presence of fixed concentration of GLP-1(9-36)
- Format: cell-based
- assay_setup: dose response of compound in presence of fixed concentration of GLP-1(9-36), GLP-1R CRE-bla CHO-K1 cells, read-out: EC20 GLP-1(9-36) PAM EC50
pEC50: −log10 of the molar value.

Complete the entry with pEC50 for CCCCCCCOc1ccc(-c2cnc(-c3ccc(C[C@H](NC(=O)c4ccc(C(C)(C)C)s4)C(=O)N[C@@H](CC(=O)NS(C)(=O)=O)C(=O)O)cc3)nc2)cc1
> 6.10

Complete the entry with pEC50 for CCCCCCc1ccc(-c2cnc(-c3ccc(C[C@H](NC(=O)c4ccc(C(C)(C)C)cc4)C(=O)NCCC(=O)O)cc3)nc2)cc1
5.60 to 6.10

Complete the entry with pEC50 for CCCCCCCOc1ccc(-c2cnc(-c3ccc(C[C@H](NC(=O)c4ccc(C(C)(C)C)cc4)C(=O)N[C@@H](CC(=O)NC)C(=O)O)cc3)nc2)cc1
> 6.10

Complete the entry with pEC50 for C[C@@H](NC(=O)[C@H](Cc1ccc(-c2ncc(-c3ccc(C4=CCC(F)(F)CC4)cc3)cn2)cc1)NC(=O)c1ccc(C(C)(C)C)s1)C(=O)O
> 6.10

Complete the entry with pEC50 for Cc1cc(-c2ccc(-c3cnc(-c4ccc(C[C@H](NC(=O)c5ccc(C(C)(C)C)s5)C(=O)N5CC(C(=O)O)C5)cc4)nc3)c(F)c2)ccc1Cl
> 6.10

Complete the entry with pEC50 for Cc1cccc(-c2noc(-c3cnc(-c4ccc(C[C@H](NC(=O)c5ccc(C(C)(C)C)cc5)C(=O)NCCC(=O)O)cc4)nc3)n2)c1
5.30 to 5.60

Complete the entry with pEC50 for CCCCCCCOc1ccc(-c2cnc(-c3ccc(C[C@H](NC(=O)c4ccc(C(C)(C)C)cc4)C(=O)N[C@H](C(=O)O)C(C)(C)C)cc3)nc2)cc1
5.60 to 6.10

Complete the entry with pEC50 for CC(C)CCCCOc1ccc(-c2cnc(-c3ccc(C[C@H](NC(=O)c4ccc(C(C)(C)C)s4)C(=O)N4CC(C(=O)O)C4)cc3)nc2)cc1
> 6.10

Complete the entry with pEC50 for CCCCCCCOc1ccc(-c2cnc(-c3ccc(C[C@H](NC(=O)c4ccc(C(C)(C)C)s4)C(=O)N4CCC(C)(C(=O)O)C4)cc3)nc2)cc1 (some centres unmarked)
5.60 to 6.10

Complete the entry with pEC50 for Cc1cc(-c2ccc(-c3cnc(-c4ccc(C[C@H](NC(=O)c5ccc(C(C)(C)C)s5)C(=O)N[C@H](C)C(=O)O)cc4)nc3)c(F)c2)ccc1OC(F)(F)F
> 6.10

Complete the entry with pEC50 for CCCc1ccc(-c2ccc(-c3cnc(-c4ccc(C[C@H](NC(=O)c5ccc(C(C)(C)C)s5)C(=O)O)cc4)nc3)c(F)c2)cc1
5.30 to 5.60

====

- target_system: GLP-1R (Homo sapiens)
- Construct: host or cells: GLP-1R CRE-bla CHO-K1 cells
- test_summary: EC20 GLP-1(9-36) PAM cAMP assay: dose response of compound in the presence of fixed concentration of GLP-1(9-36)
- Format: cell-based
- assay_setup: dose response of compound in presence of fixed concentration of GLP-1(9-36), GLP-1R CRE-bla CHO-K1 cells, read-out: EC20 GLP-1(9-36) PAM EC50
pEC50: −log10 of the molar value.
value_kind: pEC50

Complete the entry with pEC50 for CCCCCCCOc1ccc2nc(-c3ccc(C[C@H](NC(=O)c4ccc(C(C)(C)C)cc4)C(=O)N[C@H](C)C(=O)O)cc3)ccc2c1 [Compound 806]
5.60 to 6.10

Complete the entry with pEC50 for CCCCCCCc1ccc(-c2cnc(-c3ccc(C[C@H](NC(=O)c4ccc(C(C)(C)C)s4)C(=O)N4CC[C@H](C(=O)O)C4)cc3)nc2)cc1 [Compound 765]
5.60 to 6.10

Complete the entry with pEC50 for CCCCCCCOc1ccc(-c2cnc(-c3ccc(C[C@H](NC(=O)c4ccc(C(C)(C)C)s4)C(=O)N[C@H](CCN)C(=O)O)cc3)nc2)cc1 [Compound 411]
5.60 to 6.10

Complete the entry with pEC50 for COCCc1ccc(OCc2ccc(-c3cnc(-c4ccc(C[C@H](NC(=O)c5ccc(C(C)(C)C)s5)C(=O)N[C@H](C)C(=O)O)cc4)nc3)cc2)cc1 [Compound 1053]
5.30 to 5.60

Complete the entry with pEC50 for CCCCCCCOc1ccc(-c2cnc(-c3ccc(C[C@H](NC(=O)c4ccc(C(C)(C)C)s4)C(=O)NC(C(=O)O)c4ccc(C(F)(F)F)cc4)cc3)nc2)cc1 (stereo partly drawn) [Compound 618]
5.00 to 5.30

Complete the entry with pEC50 for CC(C)COc1cc(-c2cnc(-c3ccc(C[C@H](NC(=O)c4ccc(C(C)(C)C)s4)C(=O)N[C@H](C)C(=O)O)cc3)nc2)cc(Cl)c1F [Compound 1011]
5.30 to 5.60
